Molecular target: EGFR del19/T790M/C797S (Homo sapiens, UniProt P00533, C797S/DEL746-750/T790M)
Sequence (P00533 with tags, fused parts or gaps DEL746-750/T790M/C797S): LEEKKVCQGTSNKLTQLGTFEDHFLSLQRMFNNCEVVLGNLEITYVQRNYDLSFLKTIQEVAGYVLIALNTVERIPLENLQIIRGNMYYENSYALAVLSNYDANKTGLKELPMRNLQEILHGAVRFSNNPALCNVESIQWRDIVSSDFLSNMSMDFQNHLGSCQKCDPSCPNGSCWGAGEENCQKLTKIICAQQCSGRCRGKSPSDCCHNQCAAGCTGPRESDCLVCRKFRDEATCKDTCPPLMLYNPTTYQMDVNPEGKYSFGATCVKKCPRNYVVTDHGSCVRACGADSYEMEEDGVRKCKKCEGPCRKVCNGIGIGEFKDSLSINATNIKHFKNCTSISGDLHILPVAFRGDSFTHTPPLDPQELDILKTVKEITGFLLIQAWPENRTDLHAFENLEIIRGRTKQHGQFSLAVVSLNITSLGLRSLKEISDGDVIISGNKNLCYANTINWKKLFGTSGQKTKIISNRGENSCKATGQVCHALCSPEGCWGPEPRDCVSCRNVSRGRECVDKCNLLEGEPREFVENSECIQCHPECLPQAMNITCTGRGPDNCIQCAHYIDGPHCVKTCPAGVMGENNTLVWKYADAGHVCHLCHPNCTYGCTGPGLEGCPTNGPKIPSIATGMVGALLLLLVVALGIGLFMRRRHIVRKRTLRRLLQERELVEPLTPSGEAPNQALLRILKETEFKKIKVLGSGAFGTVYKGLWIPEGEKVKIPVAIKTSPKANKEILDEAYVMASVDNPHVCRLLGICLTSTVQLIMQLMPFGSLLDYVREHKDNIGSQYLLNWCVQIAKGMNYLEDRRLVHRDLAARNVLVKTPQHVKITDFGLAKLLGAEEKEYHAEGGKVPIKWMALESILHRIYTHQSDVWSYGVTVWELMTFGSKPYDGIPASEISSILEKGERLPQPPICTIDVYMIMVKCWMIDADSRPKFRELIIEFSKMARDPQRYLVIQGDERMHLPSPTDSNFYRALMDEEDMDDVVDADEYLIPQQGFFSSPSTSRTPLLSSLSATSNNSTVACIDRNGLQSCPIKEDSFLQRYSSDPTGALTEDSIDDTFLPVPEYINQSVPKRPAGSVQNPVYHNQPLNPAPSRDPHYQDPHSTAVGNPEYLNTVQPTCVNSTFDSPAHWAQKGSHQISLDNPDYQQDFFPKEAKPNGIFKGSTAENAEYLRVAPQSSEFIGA
Assay: Biochemical EGFR kinase assay (Lance Ultra TR-FRET), triple mutant del19/T790M/C797S
Settings: read-out: IC50 del19/T790M/C797S (nM) 100 μM ATP; 100 μM ATP
IC50: recorded values

[
  {
    "smiles representation": "CN(C)[C@H]1CC[C@H](CNc2cc(Nc3ccnc(-c4cnn(S(=O)(=O)C5CC5)c4)n3)ncc2-c2ccn(C(F)F)n2)CC1",
    "IC50": "0.1 nM"
  },
  {
    "smiles representation": "CC(C)(O)[C@H]1CC[C@@H](Nc2cc(Nc3ccnc(-c4cnn(S(=O)(=O)C5CC5)c4)n3)ncc2-c2csc(C(F)(F)F)n2)CC1",
    "IC50": "18.8 nM"
  },
  {
    "smiles representation": "CN[C@H]1CC[C@@H](Nc2cc(Nc3ccnc(-c4cnn(S(=O)(=O)C5CC5)c4)n3)ncc2-c2ccn(C)n2)CC1",
    "IC50": "0.3 nM"
  },
  {
    "smiles representation": "Cn1ccc(-c2cnc(Nc3ccnc(-c4cnn(S(=O)(=O)C5CC5)c4)n3)cc2N[C@H]2CC[C@](O)(C(F)(F)F)CC2)n1",
    "IC50": "3.4 nM"
  }
]
